system: RPMI-8226 leukemia; test: NCI tumour cell line growth inhibition, 48 h; in the data active = GI50 below about 0.43 µM; inactive = the rest
Your answer must be one of the following: active, inactive

The following compounds have reported results that may help.
Q: Assay outcome for `Cc1ncc(C(=O)Nc2ccc(CN3CCN(C)CC3)c(C(F)(F)F)c2)cc1C#Cc1c(N)ncc2ccc(C#N)cc12` : what was it?
Result: inactive

Q: Assay outcome for `COc1ccc(C(=O)/C=C/c2ccc(Cl)cc2)cc1S(N)(=O)=O` : what was it?
Result: inactive

New cases:
Q: Assay outcome for `CC[C@]1(O)C[C@@H]2CN(Cc3c([nH]c4ccccc34)[C@@](C(=O)OC)(c3cc4c(cc3OC)N(C)[C@H]3[C@@](O)(C(=O)OC)[C@H](OC(C)=O)[C@]5(CC)[C@@H]6C[C@@H]6CN6CC[C@]43[C@@H]65)C2)C1` : what was it?
Result: active

Just for reference, PubChem BioAssay (NCI) is where these values come from.
